# MEASUREMENT TARGET: T1, human CD19 (human, UniProt P15391 20-556)
# T1 construct: also called B-cell surface antigen B4; B-cell antigen CD19
# T1 sequence: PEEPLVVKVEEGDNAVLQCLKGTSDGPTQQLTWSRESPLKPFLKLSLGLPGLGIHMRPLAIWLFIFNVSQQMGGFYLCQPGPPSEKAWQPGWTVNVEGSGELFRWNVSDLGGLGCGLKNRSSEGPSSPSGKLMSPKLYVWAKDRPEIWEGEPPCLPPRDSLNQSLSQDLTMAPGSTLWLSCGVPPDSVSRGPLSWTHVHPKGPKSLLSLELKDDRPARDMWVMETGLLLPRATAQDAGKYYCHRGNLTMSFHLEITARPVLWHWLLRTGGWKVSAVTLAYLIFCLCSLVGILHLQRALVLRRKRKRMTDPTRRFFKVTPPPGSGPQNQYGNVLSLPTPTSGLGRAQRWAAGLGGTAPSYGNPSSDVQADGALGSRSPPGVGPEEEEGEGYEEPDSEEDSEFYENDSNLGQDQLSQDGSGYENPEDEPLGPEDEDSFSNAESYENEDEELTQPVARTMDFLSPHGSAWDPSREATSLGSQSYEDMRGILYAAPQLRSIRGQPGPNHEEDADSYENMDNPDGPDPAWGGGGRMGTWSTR
# ASSAY METHOD TEXT: binding affinity relative to the parent H1L1 mAb (Example 5); assay and format not named on the sheet
Let's look at some binders and their measured Fold change binding.
Your answer is read as fold, so omit the unit and give the number.

INSERT INTO measurements (binder, readout_unit, assay_value) VALUES
  ('H1.199 / L1.139 (antibody, V domains shown, vs H1L1 (Kabat): VH T57P/K58E/S100cT; VL S27eV/F96N; also called 4G7 H1.199_L1.139) VH: EVQLVESGGGLVKPGGSLKLSCAASGYTFTSYVMHWVRQAPGKGLEWIGYINPYNDGPEYNEKFQGRVTISSDKSISTAYMELSSLRSEDTAMYYCARGTYYYGTRVFDYWGQGTLVTVSS VL: DIVMTQSPATLSLSPGERATLSCRSSKSLLNVNGNTYLYWFQQKPGQSPQLLIYRMSNLASGVPDRFSGSGSGTEFTLTISSLEPEDFAVYYCMQHLEYPNTFGAGTKLEIK', 'fold', 2.36);

-- ask # get_value(readout='Fold change binding', item= H1.192 / L1.144 (antibody, V domains shown, vs H1L1 (Kabat): VH T57P/S100cT; VL L27cQ/F96N; also called 4G7 H1.192_L1.144) VH: EVQLVESGGGLVKPGGSLKLSCAASGYTFTSYVMHWVRQAPGKGLEWIGYINPYNDGPKYNEKFQGRVTISSDKSISTAYMELSSLRSEDTAMYYCARGTYYYGTRVFDYWGQGTLVTVSS VL: DIVMTQSPATLSLSPGERATLSCRSSKSLQNSNGNTYLYWFQQKPGQSPQLLIYRMSNLASGVPDRFSGSGSGTEFTLTISSLEPEDFAVYYCMQHLEYPNTFGAGTKLEIK )
-- reply 3.63

-- ask Which measured Fold change binding value corresponds to H1.192 / L1.152 (antibody, V domains shown, vs H1L1 (Kabat): VH T57P/S100cT; VL L27cQ/S27eV/F96N; also called 4G7 H1.192_L1.152) VH: EVQLVESGGGLVKPGGSLKLSCAASGYTFTSYVMHWVRQAPGKGLEWIGYINPYNDGPKYNEKFQGRVTISSDKSISTAYMELSSLRSEDTAMYYCARGTYYYGTRVFDYWGQGTLVTVSS VL: DIVMTQSPATLSLSPGERATLSCRSSKSLQNVNGNTYLYWFQQKPGQSPQLLIYRMSNLASGVPDRFSGSGSGTEFTLTISSLEPEDFAVYYCMQHLEYPNTFGAGTKLEIK ?
-- reply 2.98

-- ask # get_value(readout='Fold change binding', item= H1.65 / L1 (antibody, V domains shown, vs H1L1 (Kabat): VH R100dS; also called 4G7 H1.65_L1) VH: EVQLVESGGGLVKPGGSLKLSCAASGYTFTSYVMHWVRQAPGKGLEWIGYINPYNDGTKYNEKFQGRVTISSDKSISTAYMELSSLRSEDTAMYYCARGTYYYGSSVFDYWGQGTLVTVSS VL: DIVMTQSPATLSLSPGERATLSCRSSKSLLNSNGNTYLYWFQQKPGQSPQLLIYRMSNLASGVPDRFSGSGSGTEFTLTISSLEPEDFAVYYCMQHLEYPFTFGAGTKLEIK )
-- reply 1.41

-- ask Need Fold change binding of H1.52 / L1.138 (antibody, V domains shown, vs H1L1 (Kabat): VH S100cT; VL S27eV/A55N; also called 4G7 H1.52_L1.138) VH: EVQLVESGGGLVKPGGSLKLSCAASGYTFTSYVMHWVRQAPGKGLEWIGYINPYNDGTKYNEKFQGRVTISSDKSISTAYMELSSLRSEDTAMYYCARGTYYYGTRVFDYWGQGTLVTVSS VL: DIVMTQSPATLSLSPGERATLSCRSSKSLLNVNGNTYLYWFQQKPGQSPQLLIYRMSNLNSGVPDRFSGSGSGTEFTLTISSLEPEDFAVYYCMQHLEYPFTFGAGTKLEIK , thanks.
-- reply 3.93
